measurementTarget: CYP2D6 (Homo sapiens, UniProt P10635)
Construct: tissue XenoTech; host or cells: pooled human liver microsomes
Sequence (P10635 whole entry): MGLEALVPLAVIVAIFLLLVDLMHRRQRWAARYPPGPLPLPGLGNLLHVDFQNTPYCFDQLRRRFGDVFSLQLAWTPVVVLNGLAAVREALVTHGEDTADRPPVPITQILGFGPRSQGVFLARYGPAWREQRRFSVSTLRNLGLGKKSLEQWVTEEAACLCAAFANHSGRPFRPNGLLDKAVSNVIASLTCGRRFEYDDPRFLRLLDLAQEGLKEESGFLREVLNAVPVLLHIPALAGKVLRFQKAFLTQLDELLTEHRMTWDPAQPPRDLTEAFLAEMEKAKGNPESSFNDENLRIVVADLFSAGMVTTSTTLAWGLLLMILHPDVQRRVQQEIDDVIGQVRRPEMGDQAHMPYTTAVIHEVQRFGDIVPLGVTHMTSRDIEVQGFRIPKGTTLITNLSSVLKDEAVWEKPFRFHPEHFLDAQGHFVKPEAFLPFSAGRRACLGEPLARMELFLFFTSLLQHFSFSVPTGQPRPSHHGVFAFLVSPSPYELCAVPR
method: Human liver CYP inhibition assay (cocktail, pooled HLM)
Assay type: in vitro ADME
conditionSummary: human liver CYP isoenzymes, pooled HLM; read-out: CYP IC50: 2D6
pIC50: −log10 of the molar value.
resultType: pIC50

Short answer on CYP2D6 (Homo sapiens, UniProt P10635) for C[C@@]1(O)CC[C@H]2[C@H](CC[C@@H]3[C@@H]2CC[C@]2(C)[C@@H](C(=O)Cn4cnn(-c5ccnc(OCC(F)(F)F)c5)c4=O)CC[C@@H]32)C1 , pIC50: < 4.52

* * *

method: Liver microsome metabolic stability (RLM)
Assay type: in vitro ADME, rat
Set-up: unit not given here
conditionSummary: pH 7.4; rat liver microsomes; read-out: RLM intrinsic clearance (CLint)
resultType: microsomal CLint at 1 μmol/L
The reply should be a number, written without any unit.

The recorded microsomal CLint at 1 μmol/L for C[C@@]1(O)CC[C@H]2[C@H](CC[C@@H]3[C@@H]2CC[C@]2(C)[C@@H](C(=O)Cn4cnn(-c5ccnc(OCC(F)(F)F)c5)c4=O)CC[C@@H]32)C1 is 8000

* * *

measurementTarget: α4β3δ GABAA receptor (Homo sapiens, UniProt P28472+P48169)
Construct: expressed in transfected cells; host or cells: CHO cells (transient expression)
Sequence (P48169 36-554): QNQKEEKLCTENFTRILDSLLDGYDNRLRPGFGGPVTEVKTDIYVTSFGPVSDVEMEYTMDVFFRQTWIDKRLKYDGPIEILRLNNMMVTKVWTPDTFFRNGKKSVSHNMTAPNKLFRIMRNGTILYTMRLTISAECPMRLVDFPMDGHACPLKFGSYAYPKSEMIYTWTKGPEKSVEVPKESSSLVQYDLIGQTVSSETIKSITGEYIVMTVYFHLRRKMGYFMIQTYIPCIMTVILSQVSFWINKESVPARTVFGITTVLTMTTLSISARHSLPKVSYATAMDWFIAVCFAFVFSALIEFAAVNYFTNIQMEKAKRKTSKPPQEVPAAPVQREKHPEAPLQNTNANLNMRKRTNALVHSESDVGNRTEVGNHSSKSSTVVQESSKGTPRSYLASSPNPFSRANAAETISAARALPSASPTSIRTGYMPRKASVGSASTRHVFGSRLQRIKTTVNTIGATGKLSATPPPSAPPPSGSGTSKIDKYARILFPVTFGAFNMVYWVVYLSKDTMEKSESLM
Sequence (P28472 26-473): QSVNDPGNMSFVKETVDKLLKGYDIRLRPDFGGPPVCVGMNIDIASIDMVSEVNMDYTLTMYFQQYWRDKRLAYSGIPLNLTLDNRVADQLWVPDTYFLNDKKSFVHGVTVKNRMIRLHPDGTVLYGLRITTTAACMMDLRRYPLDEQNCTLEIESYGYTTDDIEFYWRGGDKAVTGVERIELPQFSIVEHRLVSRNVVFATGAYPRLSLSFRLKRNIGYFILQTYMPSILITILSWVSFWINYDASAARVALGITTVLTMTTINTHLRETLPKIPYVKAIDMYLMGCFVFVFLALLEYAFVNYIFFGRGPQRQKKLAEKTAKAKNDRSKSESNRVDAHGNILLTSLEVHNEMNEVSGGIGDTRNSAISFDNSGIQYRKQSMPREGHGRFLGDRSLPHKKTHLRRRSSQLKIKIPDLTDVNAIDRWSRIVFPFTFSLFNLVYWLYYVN
Sequence (O14764 25-452 partner): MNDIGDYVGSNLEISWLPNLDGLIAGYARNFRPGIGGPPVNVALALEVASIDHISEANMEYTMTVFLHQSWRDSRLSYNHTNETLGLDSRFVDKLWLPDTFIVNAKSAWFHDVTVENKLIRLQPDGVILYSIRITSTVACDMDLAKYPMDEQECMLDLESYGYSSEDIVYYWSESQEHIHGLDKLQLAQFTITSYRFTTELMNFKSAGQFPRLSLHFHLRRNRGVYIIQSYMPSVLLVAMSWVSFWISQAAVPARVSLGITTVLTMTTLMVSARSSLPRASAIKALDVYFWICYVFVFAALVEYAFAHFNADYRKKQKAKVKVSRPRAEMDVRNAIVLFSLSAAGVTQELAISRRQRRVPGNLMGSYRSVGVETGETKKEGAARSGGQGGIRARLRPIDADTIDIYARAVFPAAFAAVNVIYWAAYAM
method: Whole-cell electrophysiology of GABA-evoked currents, CHO cells
Assay type: cell-based
conditionSummary: CHO cells, current induced by 1 μmol/L GABA = 100%, n = 3
resultType: Emax (%)
Give just the number in %; leave the unit off.

C[C@@]1(O)CC[C@H]2[C@H](CC[C@@H]3[C@@H]2CC[C@]2(C)[C@@H](C(=O)Cn4ncn(-c5ccc(F)cc5)c4=O)CC[C@@H]32)C1
428
COCCn1ncn(CC(=O)[C@H]2CC[C@H]3[C@@H]4CC[C@@H]5C[C@](C)(O)CC[C@@H]5[C@H]4CC[C@]23C)c1=O
609
Cc1cc(-n2ncn(CC(=O)[C@H]3CC[C@H]4[C@@H]5CC[C@@H]6C[C@](C)(O)CC[C@@H]6[C@H]5CC[C@]34C)c2=O)cc(C)n1
563
C[C@@]1(O)CC[C@H]2[C@H](CC[C@@H]3[C@@H]2CC[C@]2(C)[C@@H](C(=O)Cn4cnn(-c5cccnc5)c4=O)CC[C@@H]32)C1
391
C[C@@]1(O)CC[C@H]2[C@H](CC[C@@H]3[C@@H]2CC[C@]2(C)[C@@H](C(=O)Cn4ncn(CC5CC5)c4=O)CC[C@@H]32)C1
450

# molecule C[C@@]1(O)CC[C@H]2[C@H](CC[C@@H]3[C@@H]2CC[C@]2(C)[C@@H](C(=O)Cn4cnn(-c5ccnc(OCC(F)(F)F)c5)c4=O)CC[C@@H]32)C1 ; its Emax = 967

The reported Emax of the molecule C[C@@]1(O)CC[C@H]2[C@H](CC[C@@H]3[C@@H]2CC[C@]2(C)[C@@H](C(=O)Cn4c(=O)n(-c5ccccc5)c5ccccc54)CC[C@@H]32)C1 was 470

* * *

method: Liver microsome metabolic stability (HLM)
Assay type: in vitro ADME, human
conditionSummary: pH 7.4; human liver microsomes; read-out: HLM T1/2
So basically, if half-life at 1 μmol/L comes in under 30 min it's Met, and if it's 30 min or more it's Not met.

C[C@@]1(O)CC[C@H]2[C@H](CC[C@@H]3[C@@H]2CC[C@]2(C)[C@@H](C(=O)Cn4ncn(-c5ccc(F)cc5)c4=O)CC[C@@H]32)C1 [S10]
Not met

Please indicate whether the reported half-life at 1 μmol/L of C[C@@]1(O)CC[C@H]2[C@H](CC[C@@H]3[C@@H]2CC[C@]2(C)[C@@H](C(=O)Cn4cnn(-c5cccnc5)c4=O)CC[C@@H]32)C1 [S5] is strictly below 30 min.
Met

# strict comparison: is reported half-life at 1 μmol/L < 30 min? input = C[C@@]1(O)CC[C@H]2[C@H](CC[C@@H]3[C@@H]2CC[C@]2(C)[C@@H](C(=O)Cn4cnn(-c5ccnc(OCC(F)(F)F)c5)c4=O)CC[C@@H]32)C1 [S9]
Not met

Criterion: half-life at 1 μmol/L strictly below 30 min. Is it met by C[C@@]1(O)CC[C@H]2[C@H](CC[C@@H]3[C@@H]2CC[C@]2(C)[C@@H](C(=O)Cn4c(=O)n(-c5ccccc5)c5ccccc54)CC[C@@H]32)C1 [S15] ?
Not met

Does this compound meet the criterion half-life at 1 μmol/L < 30 min? C[C@@]1(O)CC[C@H]2[C@H](CC[C@@H]3[C@@H]2CC[C@]2(C)[C@@H](C(=O)Cn4cnn(-c5cccc(C(N)=O)c5)c4=O)CC[C@@H]32)C1 [S12]
Met

Lab note: half-life at 1 μmol/L threshold 30 min. Does this compound come in strictly under it? C[C@@]1(O)CC[C@H]2[C@H](CC[C@@H]3[C@@H]2CC[C@]2(C)[C@@H](C(=O)Cn4cnn(CCOC(F)(F)F)c4=O)CC[C@@H]32)C1 [S14]
Not met

Dear reviewer, please state whether C[C@@]1(O)CC[C@H]2[C@H](CC[C@@H]3[C@@H]2CC[C@]2(C)[C@@H](C(=O)Cn4cnn(-c5cc(Cl)ccn5)c4=O)CC[C@@H]32)C1 [S7] has half-life at 1 μmol/L strictly beneath 30 min.
Not met

Dear colleague, could you confirm whether half-life at 1 μmol/L of COc1ccc(-n2ncn(CC(=O)[C@H]3CC[C@H]4[C@@H]5CC[C@@H]6C[C@](C)(O)CC[C@@H]6[C@H]5CC[C@]34C)c2=O)cn1 [S3] falls below 30 min? Thanks.
Not met

hey, is half-life at 1 μmol/L for C[C@@]1(O)CC[C@H]2[C@H](CC[C@@H]3[C@@H]2CC[C@]2(C)[C@@H](C(=O)Cn4cnn(-c5cc(F)cc(C#N)c5)c4=O)CC[C@@H]32)C1 [S13] lower than 30 min or not?
Not met

hey, is half-life at 1 μmol/L for C[C@@]1(O)CC[C@H]2[C@H](CC[C@@H]3[C@@H]2CC[C@]2(C)[C@@H](C(=O)Cn4cnn(-c5ccnc(C(F)F)c5)c4=O)CC[C@@H]32)C1 [S8] lower than 30 min or not?
Met

Lab note: confirm whether the reported half-life at 1 μmol/L for this compound is below 30 min, equality not counting. compound: C[C@@]1(O)CC[C@H]2[C@H](CC[C@@H]3[C@@H]2CC[C@]2(C)[C@@H](C(=O)Cn4cc(C#N)cn4)CC[C@@H]32)C1 [Zuranolone]
Not met

* * *

measurementTarget: α1β2γ2 GABAA receptor (Homo sapiens, UniProt P14867+P47870)
Construct: expressed in transfected cells
Sequence (P14867 28-456): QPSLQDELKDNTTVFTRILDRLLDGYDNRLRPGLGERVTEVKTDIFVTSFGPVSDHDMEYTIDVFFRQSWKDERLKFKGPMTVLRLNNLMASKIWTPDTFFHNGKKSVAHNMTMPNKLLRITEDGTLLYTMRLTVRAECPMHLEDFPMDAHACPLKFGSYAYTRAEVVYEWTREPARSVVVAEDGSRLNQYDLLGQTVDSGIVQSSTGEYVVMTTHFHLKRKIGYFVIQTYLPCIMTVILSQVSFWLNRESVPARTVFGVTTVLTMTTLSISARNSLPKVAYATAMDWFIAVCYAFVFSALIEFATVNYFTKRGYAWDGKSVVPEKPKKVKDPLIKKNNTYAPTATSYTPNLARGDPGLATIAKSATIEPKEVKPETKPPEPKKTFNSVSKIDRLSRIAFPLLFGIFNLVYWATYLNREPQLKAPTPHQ
Sequence (P47870 25-512 limits assumed): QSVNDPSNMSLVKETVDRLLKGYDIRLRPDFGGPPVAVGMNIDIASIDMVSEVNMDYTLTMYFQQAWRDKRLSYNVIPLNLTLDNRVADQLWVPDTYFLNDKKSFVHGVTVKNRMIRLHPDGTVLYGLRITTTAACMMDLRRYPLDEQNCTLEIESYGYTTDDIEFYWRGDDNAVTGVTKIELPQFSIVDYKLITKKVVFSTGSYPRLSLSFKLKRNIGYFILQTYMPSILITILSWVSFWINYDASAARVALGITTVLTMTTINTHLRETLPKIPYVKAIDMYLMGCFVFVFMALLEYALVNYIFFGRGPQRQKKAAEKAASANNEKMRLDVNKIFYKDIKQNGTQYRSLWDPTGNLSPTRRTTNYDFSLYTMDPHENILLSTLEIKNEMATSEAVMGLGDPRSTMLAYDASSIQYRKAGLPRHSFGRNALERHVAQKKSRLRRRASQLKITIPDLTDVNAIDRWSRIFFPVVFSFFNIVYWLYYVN
Sequence (P18507 40-475 partner): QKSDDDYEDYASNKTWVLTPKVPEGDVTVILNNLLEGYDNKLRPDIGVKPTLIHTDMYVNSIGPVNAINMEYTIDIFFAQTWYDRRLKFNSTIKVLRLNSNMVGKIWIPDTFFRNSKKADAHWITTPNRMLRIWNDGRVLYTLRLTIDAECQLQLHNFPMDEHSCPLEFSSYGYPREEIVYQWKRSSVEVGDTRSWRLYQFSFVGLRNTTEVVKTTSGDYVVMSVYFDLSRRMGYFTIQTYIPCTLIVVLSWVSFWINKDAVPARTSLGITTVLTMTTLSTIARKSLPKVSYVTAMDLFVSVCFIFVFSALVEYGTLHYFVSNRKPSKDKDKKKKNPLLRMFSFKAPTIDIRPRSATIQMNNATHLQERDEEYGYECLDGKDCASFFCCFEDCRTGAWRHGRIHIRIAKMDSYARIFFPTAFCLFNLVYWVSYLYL
method: Whole-cell electrophysiology of GABA-evoked currents, LTK cells
Assay type: cell-based
conditionSummary: LTK cells, current induced by 1 μmol/L GABA = 100%, n = 3
Emax: recorded values
Please state the number and follow it with the unit.

Example entries begin here.
Cc1cc(-n2ncn(CC(=O)[C@H]3CC[C@H]4[C@@H]5CC[C@@H]6C[C@](C)(O)CC[C@@H]6[C@H]5CC[C@]34C)c2=O)cc(C)n1 [S4]
691%
C[C@@]1(O)CC[C@H]2[C@H](CC[C@@H]3[C@@H]2CC[C@]2(C)[C@@H](C(=O)Cn4ncn(-c5ccc(F)cc5)c4=O)CC[C@@H]32)C1 [S10]
294%
C[C@@]1(O)CC[C@H]2[C@H](CC[C@@H]3[C@@H]2CC[C@]2(C)[C@@H](C(=O)Cn4cnn(-c5cc(Cl)ccn5)c4=O)CC[C@@H]32)C1 [S7]
624%
C[C@@]1(O)CC[C@H]2[C@H](CC[C@@H]3[C@@H]2CC[C@]2(C)[C@@H](C(=O)Cn4cnn(-c5cccnc5)c4=O)CC[C@@H]32)C1 [S5]
773%
COCCn1ncn(CC(=O)[C@H]2CC[C@H]3[C@@H]4CC[C@@H]5C[C@](C)(O)CC[C@@H]5[C@H]4CC[C@]23C)c1=O [S1]
735%
C[C@@]1(O)CC[C@H]2[C@H](CC[C@@H]3[C@@H]2CC[C@]2(C)[C@@H](C(=O)Cn4cnn(-c5ccnc(OCC(F)(F)F)c5)c4=O)CC[C@@H]32)C1 [S9]
675%
C[C@@]1(O)CC[C@H]2[C@H](CC[C@@H]3[C@@H]2CC[C@]2(C)[C@@H](C(=O)Cn4cnn(-c5ccnc(C(F)F)c5)c4=O)CC[C@@H]32)C1 [S8]
600%
C[C@@]1(O)CC[C@H]2[C@H](CC[C@@H]3[C@@H]2CC[C@]2(C)[C@@H](C(=O)Cn4cnn(-c5cccc(C(N)=O)c5)c4=O)CC[C@@H]32)C1 [S12]
764%
C[C@@]1(O)CC[C@H]2[C@H](CC[C@@H]3[C@@H]2CC[C@]2(C)[C@@H](C(=O)Cn4cnn(-c5cc(F)cc(C#N)c5)c4=O)CC[C@@H]32)C1 [S13]
518%
C[C@@]1(O)CC[C@H]2[C@H](CC[C@@H]3[C@@H]2CC[C@]2(C)[C@@H](C(=O)Cn4c(=O)n(-c5ccccc5)c5ccccc54)CC[C@@H]32)C1 [S15]
305%

Continue with the next compound.
The recorded Emax for C[C@@]1(O)CC[C@H]2[C@H](CC[C@@H]3[C@@H]2CC[C@]2(C)[C@@H](C(=O)Cn4cnn(CCOC(F)(F)F)c4=O)CC[C@@H]32)C1 [S14] is 576%
